# Target System: Nicotinamide phosphoribosyltransferase (Homo sapiens, UniProt P43490)
# Sequence (P43490 whole entry): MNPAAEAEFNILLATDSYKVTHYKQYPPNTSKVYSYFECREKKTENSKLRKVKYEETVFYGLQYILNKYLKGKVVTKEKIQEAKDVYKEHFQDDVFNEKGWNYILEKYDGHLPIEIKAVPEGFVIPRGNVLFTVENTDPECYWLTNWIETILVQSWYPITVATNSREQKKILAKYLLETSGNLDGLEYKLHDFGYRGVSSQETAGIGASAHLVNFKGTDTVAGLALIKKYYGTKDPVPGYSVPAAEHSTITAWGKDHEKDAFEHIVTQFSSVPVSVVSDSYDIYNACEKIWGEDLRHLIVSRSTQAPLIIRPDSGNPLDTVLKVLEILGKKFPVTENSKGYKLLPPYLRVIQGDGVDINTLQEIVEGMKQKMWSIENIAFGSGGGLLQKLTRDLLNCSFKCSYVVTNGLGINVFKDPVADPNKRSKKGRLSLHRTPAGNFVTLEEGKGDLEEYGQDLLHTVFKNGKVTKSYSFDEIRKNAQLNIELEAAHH
# Procedure Details: Enzymatic Reaction Assay: The NAMPT enzymatic reactions were carried out in Buffer A (50 mM Hepes pH 7.5, 50 mM NaCl, 5 mM MgCl2, and 1 mM THP) in 96-well V-bottom plates. The compound titrations were performed in a separate dilution plate by serially diluting the compounds in DMSO to make a 100× stock. Buffer A (89 μL) containing 33 nM of NAMPT protein was added to 1 μL of 100× compound plate containing controls (e.g. DMSO or blank). The compound and enzyme mixture was incubated for 15 min at rt, then 10 μL of 10× substrate and co-factors in Buffer A were added to the test well to make a final concentration of 1 μM NAM, 100 μM 5-Phospho-D-ribose 1-diphosphate (PRPP), and 2.5 mM Adenosine 5′-triphosphate (ATP). The reaction was allowed to proceed for 30 min at rt, then was quenched with the addition of 11 μL of a solution of formic acid and L-Cystathionine to make a final concentration of 1% formic acid and 10 μM L-Cystathionine. Background and signal strength was determined by addition (or non-addition) of a serial dilution of NMN to a pre-quenched enzyme and cofactor mix.
Quantity Measured: pIC50
Please keep in mind that pIC50 is minus log10 of the molar concentration; only the number is needed.

Provide pIC50 value for the following molecule: `CC(C)N1CCN(S(=O)(=O)c2ccc(CNC(=O)c3ccc4nccn4c3)cc2)CC1` 7.32

# return recorded pIC50 for input CCN1CCC([S+]([O-])c2ccc(CNC(=O)c3ccc4nccn4c3)cc2)CC1 (stereo not drawn) 7.36

Below: the item to evaluate.
For the molecule O=C(NCc1ccc(S(=O)(=O)N2CC3COCC3C2)cc1)c1cnc2[nH]ncc2c1 (mixture of isomers) , report pIC50. 6.82
